Target: CDK2 (Homo sapiens, UniProt P24941)
Construct: endogenous in cells; host or cells: MDA-MB-231
Assay: CDK protein degradation activity (Western blotting), CDK2
Format: cell-based
Conditions: MDA-MB-231 cells, 0.1 μM, 16 hours, Western blot
parameter: Enzyme degradation CDK2 (% remaining) @ 0.1 μM (%)
Report the figure in % without appending any unit label.

Example cases with answers are listed next.
// Enzyme degradation CDK2 (% remaining) @ 0.1 μM lookup, molecule = COc1ccc(C(=O)N2CC(CN3CCC4(CC3)CC(N3CCN(c5ccc(Nc6ncnc7c6ncn7[C@H]6C[C@@H](NC(=O)Cc7ccccc7)C6)cc5)CC3)C4)C2)cc1N1CCC(=O)NC1=O , result: 50

Enzyme degradation CDK2 (% remaining) @ 0.1 μM in this record for Cc1cccc(C(=O)NC2CC(n3cnc4c(NCCC5CCN(CC6CCN(C(=O)C7CCN(c8ccc9c(c8)C(=O)N([C@H]8CCC(=O)NC8=O)C9=O)CC7)CC6)CC5)ncnc43)C2)n1 (stereo partly shown) : 70

Note to self: Enzyme degradation CDK2 (% remaining) @ 0.1 μM recorded for Cc1cccc(C(=O)N[C@H]2C[C@@H](n3cnc4c(NCc5cccc(N6CCN(C(=O)CNc7ccc8c(c7)C(=O)N([C@H]7CCC(=O)NC7=O)C8=O)CC6)c5)ncnc43)C2)n1 was 80

Record O=C1CCC(N2C(=O)c3cc(F)c(N4CCC(N5CCN(c6ccc(Nc7ncnc8c7ncn8[C@H]7C[C@@H](NC(=O)Cc8ccccc8)C7)cc6)CC5)CC4)cc3C2=O)C(=O)N1 (stereo partly shown) . Reported Enzyme degradation CDK2 (% remaining) @ 0.1 μM: 50

In the following, a different molecule is considered.
The molecule listed as O=C1CC[C@H](N2C(=O)c3cc(F)c(N4CCC(C(=O)N5CCC(CN6CCN(c7ccc(Nc8ncnc9c8ncn9[C@H]8C[C@@H](NC(=O)c9cccc(C(F)(F)F)n9)C8)cc7)CC6)CC5)CC4)cc3C2=O)C(=O)N1 shows Enzyme degradation CDK2 (% remaining) @ 0.1 μM equal to 50
